# experimental.parameters: 120 min, 10 μM
quantity.measured: Plasma stability % of the parent compound after 120 min, Human (%)
Record the value in %, omitting the unit from your answer.

Worked examples, 5 molecules total:
*Q* Annotate the molecule Cc1cc(=O)oc2cc(NC(=O)[C@H]3O[C@@H](n4cc(C#Cc5cncnc5)c5c(N)ncnc54)[C@H](O)[C@@H]3O)ccc12 [18l] with its measured Plasma stability % of the parent compound after 120 min, Human.
*A* 74

*Q* Tell me measured Plasma stability % of the parent compound after 120 min, Human for Cc1cc(=O)oc2cc(NC(=O)[C@H]3O[C@@H](n4cnc5c(N)ncnc54)[C@H](O)[C@@H]3O)ccc12 [12l] please.
*A* 103

*Q* Query Plasma stability % of the parent compound after 120 min, Human for Cc1cc(=O)[nH]c2cc(NC(=O)[C@H]3O[C@@H](n4cc(C#Cc5cncnc5)c5c(N)ncnc54)[C@H](O)[C@@H]3O)ccc12 [18n]
*A* 93

*Q* State, in one line, measured Plasma stability % of the parent compound after 120 min, Human of Cc1cc(=O)[nH]c2cc(N(C)C(=O)[C@H]3O[C@@H](n4cc(C#Cc5cncnc5)c5c(N)ncnc54)[C@H](O)[C@@H]3O)ccc12 [18q]
*A* 80

*Q* Give the value of Plasma stability % of the parent compound after 120 min, Human reported for the following: Nc1ncnc2c1ncn2[C@@H]1O[C@H](C(=O)Nc2ccc3c(C(F)(F)F)cc(=O)oc3c2)[C@@H](O)[C@H]1O [12m]
*A* 20

Now for another entry.
*Q* Note Plasma stability % of the parent compound after 120 min, Human for the molecule shown: Cc1cc(=O)[nH]c2cc(NC(=O)[C@H]3O[C@@H](n4cnc5c(N)ncnc54)[C@H](O)[C@@H]3O)ccc12 [12n]
*A* 97

---

List of Hill slope values.
# test.system: SARS-CoV-2 nsp14 MTase (Severe acute respiratory syndrome coronavirus 2, UniProt P0DTD1)
# procedure.text: biochemical
# Type: biochemical
# experimental.parameters: Table S1, dose-response curve, variable slope model
API note: the answer field is a bare number with no unit suffix.

As a guide, the following entries are already answered.
*Q* Fill in Hill slope for Nc1ncnc2c1ncn2[C@@H]1O[C@H](C(=O)Nc2ccc3c(c2)NC(=O)CC3)[C@@H](O)[C@H]1O [12o] tested with SARS-CoV-2 nsp14 MTase (Severe acute respiratory syndrome coronavirus 2, UniProt P0DTD1).
*A* -0.91

*Q* Enter recorded Hill slope with SARS-CoV-2 nsp14 MTase (Severe acute respiratory syndrome coronavirus 2, UniProt P0DTD1) for Cc1cc(=O)oc2cc(SC[C@H]3O[C@@H](n4cnc5c(N)ncnc54)[C@H](O)[C@@H]3O)ccc12 [compound 24] here.
*A* -1.04

*Q* Report the value of Hill slope obtained on SARS-CoV-2 nsp14 MTase (Severe acute respiratory syndrome coronavirus 2, UniProt P0DTD1) for Nc1ncnc2c1ncn2[C@@H]1O[C@H](C(=O)Nc2ccc3cccnc3c2)[C@@H](O)[C@H]1O [12p] .
*A* -1.45

Attention now shifts to the item below.
*Q* Report the value of Hill slope obtained on SARS-CoV-2 nsp14 MTase (Severe acute respiratory syndrome coronavirus 2, UniProt P0DTD1) for Nc1ncnc2c1ncn2[C@@H]1O[C@H](CNS(=O)(=O)c2ccc3c(c2)OCCO3)[C@@H](O)[C@H]1O [22k] .
*A* -1.55

---

# experimental.parameters: 120 min, 10 μM
Measured Plasma stability % of the parent compound after 120 min, Mouse values are reported for all entries that follow.
Please reply with the bare figure in % and do not write the unit itself.

Examples with answers:
*Q* Give a short answer stating reported Plasma stability % of the parent compound after 120 min, Mouse for Cc1cc(=O)[nH]c2cc(NC(=O)[C@H]3O[C@@H](n4cnc5c(N)ncnc54)[C@H](O)[C@@H]3O)ccc12 [12n] .
*A* 78

*Q* Item Cc1cc(=O)oc2cc(NC(=O)[C@H]3O[C@@H](n4cc(C#Cc5cncnc5)c5c(N)ncnc54)[C@H](O)[C@@H]3O)ccc12 [18l] : provide Plasma stability % of the parent compound after 120 min, Mouse
*A* 89

*Q* Answer with the recorded Plasma stability % of the parent compound after 120 min, Mouse of Nc1ncnc2c1ncn2[C@@H]1O[C@H](C(=O)Nc2ccc3c(C(F)(F)F)cc(=O)oc3c2)[C@@H](O)[C@H]1O [12m] only.
*A* 67

*Q* Please indicate Plasma stability % of the parent compound after 120 min, Mouse recorded for Cc1cc(=O)[nH]c2cc(NC(=O)[C@H]3O[C@@H](n4cc(C#Cc5cncnc5)c5c(N)ncnc54)[C@H](O)[C@@H]3O)ccc12 [18n]
*A* 41

---
*Q* Tell me measured Plasma stability % of the parent compound after 120 min, Mouse for Cc1cc(=O)[nH]c2cc(N(C)C(=O)[C@H]3O[C@@H](n4cc(C#Cc5cncnc5)c5c(N)ncnc54)[C@H](O)[C@@H]3O)ccc12 [18q] please.
*A* 86

*Q* Provide measured Plasma stability % of the parent compound after 120 min, Mouse value, entry: Cc1cc(=O)oc2cc(NC(=O)[C@H]3O[C@@H](n4cnc5c(N)ncnc54)[C@H](O)[C@@H]3O)ccc12 [12l]
*A* 93

---

# procedure.text: in vitro
# experimental.parameters: human, Caco-2
# Method: 3.5. Caco-2 permeability assay Transepithelial bi-directional transport of compounds (10 µM, pH 7.4/7.4) was tested on 21-day differentiated Caco-2 monolayers. Briefly, the cells were seeded at a density of 67 ,500 cells per 96-well plate insert (Millicell®, Merck KGaA, Darmstadt, Germany). […] After that, samples were collected from both apical inserts and basolateral wells and analyzed using LC -MS/MS (SCIEX Triple Quad™ 7500 QTRAP® Ready). […]
Catalogue of efflux ratio at 2 h, 10 µM values

Worked cases, answers included:
*Q* Quick one: give measured efflux ratio at 2 h, 10 µM for Cc1cc(=O)[nH]c2cc(N(C)C(=O)[C@H]3O[C@@H](n4cc(C#Cc5cncnc5)c5c(N)ncnc54)[C@H](O)[C@@H]3O)ccc12 [18q]
*A* 1

*Q* Determine from records and report efflux ratio at 2 h, 10 µM for Cc1cc(=O)oc2cc(NC(=O)[C@H]3O[C@@H](n4cnc5c(N)ncnc54)[C@H](O)[C@@H]3O)ccc12 [12l]
*A* 3.4

*Q* For the compound Nc1ncnc2c1ncn2[C@@H]1O[C@H](C(=O)Nc2ccc3c(C(F)(F)F)cc(=O)oc3c2)[C@@H](O)[C@H]1O [12m] , report efflux ratio at 2 h, 10 µM.
*A* 4.1

*Q* Recall and state the measured efflux ratio at 2 h, 10 µM for Cc1cc(=O)[nH]c2cc(NC(=O)[C@H]3O[C@@H](n4cc(C#Cc5cncnc5)c5c(N)ncnc54)[C@H](O)[C@@H]3O)ccc12 [18n] .
*A* 0.6

Please turn your attention to the following entry.
*Q* Name the recorded efflux ratio at 2 h, 10 µM of the item Cc1cc(=O)[nH]c2cc(NC(=O)[C@H]3O[C@@H](n4cnc5c(N)ncnc54)[C@H](O)[C@@H]3O)ccc12 [12n] in your answer.
*A* 0.5

---

# experimental.parameters: microsomes, 0.75 h, 10 µM, pH 7.4
Items are presented alongside their recorded Microsomal stability % of the parent compound after 45 min, Human.
Report as a plain number; the unit % is understood.

*Q* State its Microsomal stability % of the parent compound after 45 min, Human: Cc1cc(=O)[nH]c2cc(NC(=O)[C@H]3O[C@@H](n4cc(C#Cc5cncnc5)c5c(N)ncnc54)[C@H](O)[C@@H]3O)ccc12 [18n]
*A* 90

*Q* Provide one value: measured Microsomal stability % of the parent compound after 45 min, Human of Cc1cc(=O)[nH]c2cc(N(C)C(=O)[C@H]3O[C@@H](n4cc(C#Cc5cncnc5)c5c(N)ncnc54)[C@H](O)[C@@H]3O)ccc12 [18q]
*A* 107

*Q* Given the compound Cc1cc(=O)[nH]c2cc(NC(=O)[C@H]3O[C@@H](n4cnc5c(N)ncnc54)[C@H](O)[C@@H]3O)ccc12 [12n] , write its reported Microsomal stability % of the parent compound after 45 min, Human.
*A* 95

---

# procedure.text: in vitro
# experimental.parameters: human, Caco-2, Recovery (%) A-B
Here, each record is paired with measured recovery at 2 h, 10 µM data.
// return numeric value only (unit: %, not printed)

*Q* Give recovery at 2 h, 10 µM for Cc1cc(=O)[nH]c2cc(NC(=O)[C@H]3O[C@@H](n4cc(C#Cc5cncnc5)c5c(N)ncnc54)[C@H](O)[C@@H]3O)ccc12 [18n]
*A* 148

*Q* Give the measured recovery at 2 h, 10 µM for Cc1cc(=O)oc2cc(NC(=O)[C@H]3O[C@@H](n4cnc5c(N)ncnc54)[C@H](O)[C@@H]3O)ccc12 [12l]
*A* 85

*Q* Supply recovery at 2 h, 10 µM value. Item: Cc1cc(=O)[nH]c2cc(N(C)C(=O)[C@H]3O[C@@H](n4cc(C#Cc5cncnc5)c5c(N)ncnc54)[C@H](O)[C@@H]3O)ccc12 [18q]
*A* 89

*Q* State its recovery at 2 h, 10 µM: Cc1cc(=O)[nH]c2cc(NC(=O)[C@H]3O[C@@H](n4cnc5c(N)ncnc54)[C@H](O)[C@@H]3O)ccc12 [12n]
*A* 79

*Q* Name the recorded recovery at 2 h, 10 µM of the item Cc1cc(=O)oc2cc(NC(=O)[C@H]3O[C@@H](n4cc(C#Cc5cncnc5)c5c(N)ncnc54)[C@H](O)[C@@H]3O)ccc12 [18l] in your answer.
*A* 87

*Q* Annotate the compound Nc1ncnc2c1ncn2[C@@H]1O[C@H](C(=O)Nc2ccc3c(C(F)(F)F)cc(=O)oc3c2)[C@@H](O)[C@H]1O [12m] with its measured recovery at 2 h, 10 µM.
*A* 96

Origin of measurements: paper PMC11352099
